target_under_test: 5-hydroxytryptamine receptor 7 (Homo sapiens)
Sequence (P34969 whole entry): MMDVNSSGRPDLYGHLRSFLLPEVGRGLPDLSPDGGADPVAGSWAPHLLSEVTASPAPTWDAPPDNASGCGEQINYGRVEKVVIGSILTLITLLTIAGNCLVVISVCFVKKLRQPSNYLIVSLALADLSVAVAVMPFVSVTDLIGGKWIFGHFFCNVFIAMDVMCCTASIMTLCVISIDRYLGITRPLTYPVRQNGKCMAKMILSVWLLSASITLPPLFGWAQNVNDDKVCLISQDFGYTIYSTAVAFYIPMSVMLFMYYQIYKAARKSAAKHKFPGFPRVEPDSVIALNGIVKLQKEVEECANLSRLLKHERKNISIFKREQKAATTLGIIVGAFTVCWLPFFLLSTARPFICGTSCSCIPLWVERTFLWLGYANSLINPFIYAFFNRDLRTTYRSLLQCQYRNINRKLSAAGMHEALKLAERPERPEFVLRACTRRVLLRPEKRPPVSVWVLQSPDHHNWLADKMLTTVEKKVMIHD
assay_summary: Agonist activity at human 5-HT7R expressed in HEK293 cells assessed as induction of cAMP levels at 10 uM treated for 10 mins measured after 30 mins by D2-dye based fluorescence assay relative to serotonin
Assay type: functional, cell-based
Kind request: treat 10% as inclusive, so Emax at 10% or higher is Y, anything lower is N.

{"smi": "CNCc1ccc(C)c(-c2ccccc2OC)c1", "assigned_label": "Y"}
{"smi": "COc1ccccc1-c1cccc(CN(C)C)c1", "assigned_label": "Y"}
{"smi": "COc1ccccc1-c1cc(CN2CCC(C)CC2)cc2c1OCO2", "assigned_label": "N"}
{"smi": "COc1ccccc1-c1cc(CN2CCC(C)CC2)ccc1OC", "assigned_label": "N"}
{"smi": "COc1ccccc1-c1cc(CN2CCN(c3ccccc3OC)CC2)ccc1Cl", "assigned_label": "N"}
{"smi": "COc1ccccc1-c1cc(CN2CCC(C)CC2)ccc1Cl", "assigned_label": "N"}
{"smi": "CNCc1ccc(Cl)c(-c2ccccc2OC)c1", "assigned_label": "Y"}
{"smi": "CNCc1cccc(-c2ccccc2OC)c1", "assigned_label": "Y"}
{"smi": "COc1ccccc1-c1cc(CN2CCN(c3ccccc3OC)CC2)ccc1OC", "assigned_label": "N"}
{"smi": "COc1ccccc1-c1cc(CN(C)C)ccc1Cl", "assigned_label": "Y"}
{"smi": "CNCc1ccc(OC)c(-c2ccccc2OC)c1", "assigned_label": "Y"}
{"smi": "COc1ccccc1-c1cc(CN2CCN(c3ccccc3OC)CC2)ccc1C", "assigned_label": "Y"}
